- target or system: human ether-à-go-go-related gene (hERG) potassium channel (human, UniProt Q12809);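 also: peak tail current of the secondary pulse compared with the same well before compound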
- Sequence (Q12809 whole entry, looked up): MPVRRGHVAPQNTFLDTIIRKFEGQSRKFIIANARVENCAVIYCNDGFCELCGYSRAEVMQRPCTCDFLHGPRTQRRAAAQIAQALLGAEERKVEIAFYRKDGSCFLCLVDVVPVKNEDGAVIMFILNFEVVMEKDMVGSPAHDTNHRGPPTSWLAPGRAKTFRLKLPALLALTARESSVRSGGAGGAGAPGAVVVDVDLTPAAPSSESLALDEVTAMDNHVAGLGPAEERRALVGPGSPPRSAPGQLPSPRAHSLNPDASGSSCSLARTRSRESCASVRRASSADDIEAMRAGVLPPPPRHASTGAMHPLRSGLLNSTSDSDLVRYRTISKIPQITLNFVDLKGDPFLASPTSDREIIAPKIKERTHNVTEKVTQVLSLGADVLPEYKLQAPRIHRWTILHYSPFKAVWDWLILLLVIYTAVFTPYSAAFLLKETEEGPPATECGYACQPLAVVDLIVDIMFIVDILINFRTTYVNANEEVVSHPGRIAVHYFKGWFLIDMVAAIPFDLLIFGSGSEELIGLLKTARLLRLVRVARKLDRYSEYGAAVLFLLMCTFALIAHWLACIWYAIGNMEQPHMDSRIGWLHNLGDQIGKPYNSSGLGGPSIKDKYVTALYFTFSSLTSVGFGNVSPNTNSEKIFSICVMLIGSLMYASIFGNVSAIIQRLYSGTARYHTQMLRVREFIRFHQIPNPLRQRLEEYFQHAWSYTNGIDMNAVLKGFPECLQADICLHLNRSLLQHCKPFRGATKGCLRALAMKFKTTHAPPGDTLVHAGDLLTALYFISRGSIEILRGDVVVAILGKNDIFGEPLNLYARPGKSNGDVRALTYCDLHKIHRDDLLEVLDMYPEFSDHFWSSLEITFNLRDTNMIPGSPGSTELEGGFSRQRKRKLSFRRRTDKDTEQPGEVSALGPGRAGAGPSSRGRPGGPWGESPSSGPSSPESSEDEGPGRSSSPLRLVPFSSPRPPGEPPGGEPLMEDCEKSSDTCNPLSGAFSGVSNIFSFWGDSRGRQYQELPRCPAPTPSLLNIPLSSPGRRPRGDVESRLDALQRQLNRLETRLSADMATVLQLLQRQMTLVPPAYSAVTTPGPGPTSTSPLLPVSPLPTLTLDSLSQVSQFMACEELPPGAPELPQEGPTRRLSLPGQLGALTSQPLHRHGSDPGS
- method summary: primary screen, population patch clamp on CHO cells stably expressing hERG; higher = less effect of the substance
Hit rate of the full screen: of about 310,000 compounds, about 14,000 (4.5%) showed an effect of 50% or more. The effect is printed as a negative number. Only a selection was taken, and strong results are over-represented in it overall.
property name: hERG current change (%, negative = inhibition) at 10uM
A complete answer gives the number followed by the unit.

Dear colleague, I am looking for the recorded hERG current change (%, negative = inhibition) at 10uM of the following molecule: O=[N+]([O-])c1cc(S(=O)(=O)N2CCOCC2)ccc1OCc1cccc(Cl)c1 1.31%

Dear colleague, I am looking for the recorded hERG current change (%, negative = inhibition) at 10uM of the following molecule: Cc1ccc(C(=O)c2cc([N+](=O)[O-])ccc2N2CCCCC2)cc1 -5.08%

Dear colleague, I am looking for the recorded hERG current change (%, negative = inhibition) at 10uM of the following molecule: COc1ccc(C(CC(=O)O)NC(=O)COc2ccc(C)cc2)cc1OC (centres unmarked) 15.2%

Dear colleague, I am looking for the recorded hERG current change (%, negative = inhibition) at 10uM of the following molecule: CCN1CCN(c2ccc([N+](=O)[O-])cc2C(=O)c2ccc(Cl)cc2)CC1 -72.8%

Dear colleague, I am looking for the recorded hERG current change (%, negative = inhibition) at 10uM of the following molecule: COc1ccc(C(=O)c2cc([N+](=O)[O-])ccc2N2CCOCC2)cc1 -23.5%

Dear colleague, I am looking for the recorded hERG current change (%, negative = inhibition) at 10uM of the following molecule: Cn1c2ccccc2c(=O)c2ccc(F)cc21 0.557%

Dear colleague, I am looking for the recorded hERG current change (%, negative = inhibition) at 10uM of the following molecule: COc1ccccc1CCNC(=O)CCn1c(=O)c2cccn2c2ccc(F)cc21 5.9%

Dear colleague, I am looking for the recorded hERG current change (%, negative = inhibition) at 10uM of the following molecule: CCCN1C(=O)C(NS(=O)(=O)c2ccc(N)cc2)(C(F)(F)F)C(C(=O)OC)=C1C (centres unmarked) 10.1%

Dear colleague, I am looking for the recorded hERG current change (%, negative = inhibition) at 10uM of the following molecule: COc1ccc(C(=O)c2ccc([N+](=O)[O-])cc2Cl)cc1 -16.2%

Dear colleague, I am looking for the recorded hERG current change (%, negative = inhibition) at 10uM of the following molecule: CCOC(=O)c1c(NC(=O)COC(=O)CCOc2ccc(OCC)cc2)sc(C(=O)N(C)C)c1C -8.87%

Dear colleague, I am looking for the recorded hERG current change (%, negative = inhibition) at 10uM of the following molecule: CCOC(=O)N1CCC(=NNc2ccc(S(=O)(=O)N3CCOCC3)cc2[N+](=O)[O-])CC1 -61.3%

Dear colleague, I am looking for the recorded hERG current change (%, negative = inhibition) at 10uM of the following molecule: CN(Cc1nc(-c2ccncc2)no1)S(=O)(=O)c1ccc(Cl)cc1 -55.5%

Dear colleague, I am looking for the recorded hERG current change (%, negative = inhibition) at 10uM of the following molecule: CCC(C)[C@H](NC(=O)OC(C)(C)C)C(=O)N/N=C/c1ccc2nccnc2c1 (some centres unmarked) -13.8%

Dear colleague, I am looking for the recorded hERG current change (%, negative = inhibition) at 10uM of the following molecule: Cc1cc(C(=O)NNC(=S)Nc2cccc(C(F)(F)F)c2)nn1C 30.1%

Dear colleague, I am looking for the recorded hERG current change (%, negative = inhibition) at 10uM of the following molecule: O=C(c1ccccc1)c1cc([N+](=O)[O-])ccc1N1CCOCC1 -30.7%

Dear colleague, I am looking for the recorded hERG current change (%, negative = inhibition) at 10uM of the following molecule: CCOC(=O)c1c(NC(=O)COC(=O)Cc2c[nH]c3ccccc23)sc(C(=O)N(C)C)c1C -62.5%

Dear colleague, I am looking for the recorded hERG current change (%, negative = inhibition) at 10uM of the following molecule: CCOc1ccc(S(=O)(=O)N2CCOCC2)cc1[N+](=O)[O-] -52.2%

Dear colleague, I am looking for the recorded hERG current change (%, negative = inhibition) at 10uM of the following molecule: Cc1ccc(S(=O)(=O)N(C)Cc2nc(-c3ccc(Br)cc3)no2)cc1 4.12%

Dear colleague, I am looking for the recorded hERG current change (%, negative = inhibition) at 10uM of the following molecule: Cc1ccc(OCC(=O)N(C)Cc2ccccc2)c([N+](=O)[O-])n1 3.95%

Dear colleague, I am looking for the recorded hERG current change (%, negative = inhibition) at 10uM of the following molecule: Cn1ccs/c1=N\C(=O)Nc1cccc(Cl)c1 0.433%

Dear colleague, I am looking for the recorded hERG current change (%, negative = inhibition) at 10uM of the following molecule: COc1ccc(C(=O)c2cc([N+](=O)[O-])ccc2N2CCN(C)CC2)cc1 -58.2%

Dear colleague, I am looking for the recorded hERG current change (%, negative = inhibition) at 10uM of the following molecule: CC(=O)N1CCN(c2ccc(NC(=O)c3cccc([N+](=O)[O-])c3)cc2)CC1 -3.59%

Dear colleague, I am looking for the recorded hERG current change (%, negative = inhibition) at 10uM of the following molecule: O=C1c2ccccc2C(=O)N1COc1ccc(S(=O)(=O)N2CCOCC2)cc1[N+](=O)[O-] -22.8%

Dear colleague, I am looking for the recorded hERG current change (%, negative = inhibition) at 10uM of the following molecule: Cc1ccc(C(=O)c2cc([N+](=O)[O-])ccc2N2CCOCC2)cc1C -17%

Dear colleague, I am looking for the recorded hERG current change (%, negative = inhibition) at 10uM of the following molecule: CCCOc1ccc(S(=O)(=O)N2CCCC2)cc1[N+](=O)[O-] -30.1%

Dear colleague, I am looking for the recorded hERG current change (%, negative = inhibition) at 10uM of the following molecule: Cc1ccc(C(=O)c2cc([N+](=O)[O-])ccc2N2CC(C)OC(C)C2)cc1 (centres unmarked) -0.127%

Dear colleague, I am looking for the recorded hERG current change (%, negative = inhibition) at 10uM of the following molecule: Cc1ccc(Cn2c(SCC(=O)NCC3CCCO3)nc3c2c(=O)n(C)c(=O)n3C)cc1 (centres unmarked) -28.4%

Dear colleague, I am looking for the recorded hERG current change (%, negative = inhibition) at 10uM of the following molecule: COc1cc(C(=O)NNC(=O)CSc2nnc3ccccn23)cc(OC)c1OC 15.4%

Dear colleague, I am looking for the recorded hERG current change (%, negative = inhibition) at 10uM of the following molecule: CCOC(=O)N1CCC(=NNc2ccc(S(N)(=O)=O)cc2[N+](=O)[O-])CC1 -11.8%

Dear colleague, I am looking for the recorded hERG current change (%, negative = inhibition) at 10uM of the following molecule: Cc1ccsc1C(=O)C1CCCN(Cc2cc(C(C)C)n[nH]2)C1 (centres unmarked) -43.9%

Dear colleague, I am looking for the recorded hERG current change (%, negative = inhibition) at 10uM of the following molecule: Cc1ccsc1C(=O)C1CCCN(Cc2ccc(O)cc2)C1 (centres unmarked) -22.9%

Dear colleague, I am looking for the recorded hERG current change (%, negative = inhibition) at 10uM of the following molecule: CN(Cc1nc(-c2cccnc2)no1)S(=O)(=O)c1ccc(Br)cc1 -46%

Dear colleague, I am looking for the recorded hERG current change (%, negative = inhibition) at 10uM of the following molecule: CN(Cc1nc(-c2ccncc2)no1)S(=O)(=O)c1ccc(Br)cc1 -58.1%

Dear colleague, I am looking for the recorded hERG current change (%, negative = inhibition) at 10uM of the following molecule: Cc1ccc(C(=O)c2cc([N+](=O)[O-])ccc2N2CCN(C)CC2)cc1 -64.5%

Dear colleague, I am looking for the recorded hERG current change (%, negative = inhibition) at 10uM of the following molecule: COc1ccc(OC)c(CNC(=O)CCn2c(=O)c3cccn3c3ccc(F)cc32)c1 -62.2%

Dear colleague, I am looking for the recorded hERG current change (%, negative = inhibition) at 10uM of the following molecule: CCOc1ccc(S(=O)(=O)N2CCOCC2)cc1NS(=O)(=O)c1ccc(OC)c([N+](=O)[O-])c1 -41.7%

Dear colleague, I am looking for the recorded hERG current change (%, negative = inhibition) at 10uM of the following molecule: CN1CCN(c2ccc([N+](=O)[O-])cc2C(=O)c2ccccc2)CC1 -54.2%

Dear colleague, I am looking for the recorded hERG current change (%, negative = inhibition) at 10uM of the following molecule: CCOC(=O)c1c(NC(=O)COC(=O)c2ccc([N+](=O)[O-])cc2)sc(C(=O)N(C)C)c1C -8.65%
